Data provenance is PubChem BioAssay (NCI).

Test system: ACHN renal
Assay: NCI tumour cell line growth inhibition, 48 h; in the data active = GI50 below about 0.43 µM; inactive = the rest
I would appreciate it if you answered using one of these outcomes: y for active, n for inactive

**Q:** Entry "CC1=C([Te]c2ccccc2)C(=O)c2ccccc2C1=O" : call = ?
**A:** n

**Q:** Entry "O=C1c2c(c(=O)[nH]c3ccccc23)[C@H](c2ccccc2)[C@@H]2CCCN12" : call = ?
**A:** n

**Q:** Entry CC1SC(c2ccccc2Cl)N(NC(=O)C(O)c2ccccc2)C1=O (stereo unspecified) : call = ?
**A:** n

**Q:** Entry "COc1cc(CCC[P+](c2ccccc2)(c2ccccc2)c2ccccc2)c(OC)c2c1OCO2" : call = ?
**A:** n

**Q:** Entry "COc1cnc2c(c1)C(=O)c1c-2n(CCCN2CCCC2)c(=O)c2cc([N+](=O)[O-])ccc12" : call = ?
**A:** y

**Q:** Entry "COc1cc2nc(N3CCCN(C)CC3)nc(NC3CCN(Cc4ccccc4)CC3)c2cc1OC" : call = ?
**A:** n

**Q:** Entry "NC(=S)N/N=C/c1ccc(OC(=O)COc2cc(Cl)c(Cl)cc2Cl)cn1" : call = ?
**A:** n

**Q:** Entry "CSc1cc([C@@H]2C[C@H]2c2ccc(Cl)cc2)on1" : call = ?
**A:** n

**Q:** Entry "CCC1=C(c2ccc(OC)cc2)C(C)(C)Oc2c1ccc(O)c2CN1CCCC1" : call = ?
**A:** n

**Q:** Entry "COc1cc(-n2ccnc2-c2ccc3ccccc3c2)cc(OC)c1OC" : call = ?
**A:** n

**Q:** Entry CCOC(=O)c1[nH]c2cc(Cl)ccc2c1[C@@H](C(=O)NC(C)(C)C)N(CC)C(=O)CCCCC#Cc1cccc2c1CN(C1CCC(=O)NC1=O)C2=O (stereo partly specified) : call = ?
**A:** n

---

So I've got a bunch of compounds here, and I need their log10 of TGI values.
Tested on: MALME-3M melanoma
Assay: NCI tumour cell line growth inhibition, 48 h
// stored as log10 of TGI expressed in µM

**Q:** Value lookup for log10 of TGI; key = "CO/C=C(/C(=O)OC)[C@@H]1C[C@@H]1c1ccc2ccccc2c1"
**A:** 1.70

**Q:** Value lookup for log10 of TGI; key = "COc1cc(CCC[P+](c2ccccc2)(c2ccccc2)c2ccccc2)c(OC)c2c1OCO2"
**A:** 0.84

**Q:** Value lookup for log10 of TGI; key = "COC(=O)Nc1nc2ccc(NS(=O)(=O)c3cccs3)cc2[nH]1"
**A:** 1.74

**Q:** Value lookup for log10 of TGI; key = CSc1ccc(C2=NN(C(C)=O)C(c3ccc(-c4cc(Cl)c(Cl)cc4Cl)o3)C2)cc1 (configuration not stated)
**A:** 1.60

**Q:** Value lookup for log10 of TGI; key = "CC(C)(C)c1ccc2c(c1)OP1(Oc3c(Cl)cc(Cl)c4cccnc34)(O2)Oc2ccc(C(C)(C)C)cc2O1"
**A:** 1.40

**Q:** Value lookup for log10 of TGI; key = "COC[C@H](NC(=O)c1cnc(C)s1)C(=O)N[C@@H](COC)C(=O)N[C@@H](Cc1ccccc1)C(=O)[C@@]1(C)CO1"
**A:** 1.81

**Q:** Value lookup for log10 of TGI; key = COc1ccc2c(c1)CCC1C2CC[C@@]2(C)C1CC[C@@H]2NC(=O)Cc1ccc(O)c(O)c1 (some centres not stated)
**A:** 1.61

**Q:** Value lookup for log10 of TGI; key = "CC(C)(C)c1cc(/C=C(\C#N)C2=NCCO2)cc(C(C)(C)C)c1O"
**A:** 1.29

**Q:** Value lookup for log10 of TGI; key = "COc1ccc2c(c1)c1c3c(ccc4ncn2c43)N(CCO)CCN=1"
**A:** -0.37

**Q:** Value lookup for log10 of TGI; key = CC1OC(OC2C(O)COC(OC3C(C)OC(OC4C(OC(=O)[C@]56CCC(C)(C)C[C@@H]5C5=CCC7[C@@]8(C)C[C@H](O)[C@H](OC9OC(CO)C(O)C(O)C9O)[C@@](C)(CO)[C@@H]8CC[C@@]7(C)[C@]5(C)CC6)OCC(O)C4O)C(O)C3O)C2O)C(O)C(O)C1O (some centres not stated)
**A:** 1.81

**Q:** Value lookup for log10 of TGI; key = "C#C[C@]1(O)CC[C@H]2[C@@H]3CCC4=C/C(=N\OCCN5CCCCC5)CC[C@]4(C)[C@H]3CC[C@@]21C"
**A:** 1.33

**Q:** Value lookup for log10 of TGI; key = "O=C(c1c(F)c(F)c(F)c(F)c1F)c1c(F)c(F)c(F)c(F)c1F"
**A:** 0.51

**Q:** Value lookup for log10 of TGI; key = OC1CC2CCC(C1)N2CCCN1c2ccccc2Sc2ccc(Cl)cc21 (configuration not stated)
**A:** 0.56

**Q:** Value lookup for log10 of TGI; key = COc1ccc(N2C(=O)C3CC(c4ccc(Br)cc4)c4c([nH]c5ccccc45)C3C2=O)cc1 (configuration not stated)
**A:** 1.56

**Q:** Value lookup for log10 of TGI; key = Cc1ccc2nc3ccccc3c(C3C4C(=O)N(c5ccc(F)cc5)C(=O)C4ON3C(C(N)=O)c3ccccc3)c2c1 (configuration not stated)
**A:** 1.91

---

System: RXF 393 renal
Assay: NCI tumour cell line growth inhibition, 48 h; in the data active = GI50 below about 0.43 µM; inactive = the rest
I would appreciate it if you answered using one of these outcomes: active, inactive

**Q:** Entry "CC1(C)N=C(N)N=C(N)N1c1ccc(CNC(=O)Nc2ccc(S(=O)(=O)F)c(Cl)c2)c(Cl)c1" : call = ?
**A:** inactive

**Q:** Entry "O=C1c2c(c(=O)[nH]c3ccccc23)[C@H](c2ccccc2)[C@@H]2CCCN12" : call = ?
**A:** inactive

**Q:** Entry "CCN1CCN(CCNc2nccc(-c3c(-c4ccc(F)c(O)c4)nc4occn34)n2)S1(=O)=O" : call = ?
**A:** inactive

**Q:** Entry NCCCCC(NC(=O)C(N)CCCN=C(N)N)C(=O)NC(CCCCN)C(=O)NC(CCCN=C(N)N)C(=O)NC(CCCN=C(N)N)C(=O)NC(CCC(N)=O)C(=O)NC(CCCN=C(N)N)C(=O)NC(CCCN=C(N)N)C(=O)NC(CCCN=C(N)N)C(=O)NCC(=O)NCC(=O)O (centres undefined) : call = ?
**A:** inactive

**Q:** Entry "Cc1ccc(CNc2ccc3nc(CCC4CCCCC4)[nH]c3c2)cc1" : call = ?
**A:** inactive

**Q:** Entry CC1=C(C#N)C23C(=O)N(c4ccccc4)C(=O)C2=C(O)C=CC3(O)N1Cc1ccc(Cl)cc1Cl (centres undefined) : call = ?
**A:** inactive

**Q:** Entry "COc1cnc2c(c1)C(=O)c1c-2n(CCCN2CCCC2)c(=O)c2cc([N+](=O)[O-])ccc12" : call = ?
**A:** active

**Q:** Entry "CC1=C([Te]c2ccccc2)C(=O)c2ccccc2C1=O" : call = ?
**A:** inactive

**Q:** Entry CSc1ccc(C2=NN(C(C)=O)C(c3ccc(-c4cc(Cl)c(Cl)cc4Cl)o3)C2)cc1 (centres undefined) : call = ?
**A:** inactive

---

System: SR leukemia
Assay: NCI tumour cell line growth inhibition, 48 h
Where a SMILES comes first, the peptide text is derived from it. [ ]: non-standard residue; d: D form. pGlu = O=C1CC[CH](C(=O)O)N1
So I've got a bunch of compounds here, and I need their TGI values.

**Q:** Value lookup for TGI; key = "C(=N\Nc1ncc(-c2cc3cc4c(cc3o2)OCO4)s1)/c1ccco1"
**A:** 25.3 µM

**Q:** Value lookup for TGI; key = Cc1ccc(NCC2(/N=C/c3ccccc3)OC(CO)C(O)C2O)cc1 (stereo unspecified)
**A:** > 100 µM

**Q:** Value lookup for TGI; key = CC(NC(=O)C1CCC(=O)N1)C(=O)N1CCCC1C(N)=O (stereo not drawn) ([pGlu]-Ala-Pro-NH2; configuration not given here)
**A:** > 100 µM

**Q:** Value lookup for TGI; key = "O=S(=O)(O)c1ccc(N=Nc2ccccc2)cc1"
**A:** > 100 µM

**Q:** Value lookup for TGI; key = CC(C)(C)OC(=O)C1C(=O)NC(=O)CC1CC(OCc1ccccc1)C(OCc1ccccc1)C(COCc1ccccc1)OCc1ccccc1 (stereo unspecified)
**A:** > 100 µM

**Q:** Value lookup for TGI; key = Cc1ccc(OP(=O)(Oc2ccc(C)cc2)N2C=Cc3ccccc3C2C#N)cc1 (stereo unspecified)
**A:** > 100 µM

**Q:** Value lookup for TGI; key = "Nn1c(CCCCCCCCc2nnc(-c3c(O)ccc4ccccc34)n2N)nnc1-c1c(O)ccc2ccccc12"
**A:** > 100 µM

**Q:** Value lookup for TGI; key = "COc1c2c(c3c(c1OC)c(=O)c1ccccc1n3C)OCO2"
**A:** > 100 µM

**Q:** Value lookup for TGI; key = O=C1c2ccccc2N(O)C1(c1ccccc1)C1CCCC=C1N1CCOCC1 (stereo unspecified)
**A:** > 100 µM

**Q:** Value lookup for TGI; key = "COc1cc(-c2nn(-c3cccc(NC(=O)Nc4ccc(Cl)c(C(F)(F)F)c4)c3)cc2-c2ccncc2)ccc1Cl"
**A:** 2.48 µM

**Q:** Value lookup for TGI; key = "COC(=O)C1=C(C)NC(=O)N2[C@@H](CCOCc3ccccc3)CC[C@@H]12"
**A:** > 50 µM

**Q:** Value lookup for TGI; key = C=C1C(C(=O)OC)[C@H]1C(=O)OC (stereo partly specified)
**A:** > 100 µM

**Q:** Value lookup for TGI; key = "CC(=O)OCc1c(O)c2c([nH]c1=O)CCc1ccccc1-2"
**A:** > 350 µM

**Q:** Value lookup for TGI; key = CC(=O)OC12C(C)=C(C)C(=O)N1c1ccccc1N2C(C)=O (stereo unspecified)
**A:** > 100 µM

**Q:** Value lookup for TGI; key = CC1SC(c2ccccc2Cl)N(NC(=O)C(O)c2ccccc2)C1=O (stereo unspecified)
**A:** > 100 µM

**Q:** Value lookup for TGI; key = O=C1C2CCN(CC2)C1CN1CCOCC1 (stereo unspecified)
**A:** 35.5 µM

**Q:** Value lookup for TGI; key = "COC(=O)CCc1ccc(CCC(=O)OC)cc1"
**A:** > 100 µM

**Q:** Value lookup for TGI; key = "Cn1c(-c2ccco2)ccc1-c1ccc(C=O)o1"
**A:** > 100 µM

**Q:** Value lookup for TGI; key = "C=C(/C=C/C=C(\C)CCC=C(C)C)[C@@H]1CC[C@]2([C@H](CCCO)/C(=C(/C)C=O)CC[C@]2(C)O)[C@@H]1O"
**A:** 40.9 µM

**Q:** Value lookup for TGI; key = "CO/C=C(/C(=O)OC)[C@@H]1C[C@@H]1c1ccc2ccccc2c1"
**A:** 44.7 µM

**Q:** Value lookup for TGI; key = COC1OC2COC1(OCc1ccccc1)C1OC(C)(C)OC21 (stereo unspecified)
**A:** > 100 µM
